- TARGET_OR_SYSTEM: CSNK1D (human) (UniProt P48730)
- Sequence (P48730 whole entry, looked up): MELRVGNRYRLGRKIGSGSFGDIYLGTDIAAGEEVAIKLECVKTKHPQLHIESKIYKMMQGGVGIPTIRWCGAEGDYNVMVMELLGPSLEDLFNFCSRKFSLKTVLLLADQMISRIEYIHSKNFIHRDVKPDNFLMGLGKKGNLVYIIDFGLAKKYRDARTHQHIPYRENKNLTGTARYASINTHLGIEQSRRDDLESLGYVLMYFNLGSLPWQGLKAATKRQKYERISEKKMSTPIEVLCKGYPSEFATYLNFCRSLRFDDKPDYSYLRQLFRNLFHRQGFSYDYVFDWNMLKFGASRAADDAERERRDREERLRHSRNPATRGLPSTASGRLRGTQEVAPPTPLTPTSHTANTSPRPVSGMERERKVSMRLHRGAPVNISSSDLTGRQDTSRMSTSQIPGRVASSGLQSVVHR
- ASSAY_OVERVIEW: radiometric filter-binding kinase assay, Kinase HotSpot
- CONDITION_LABEL: compound 0.5 µM; ATP 10 µM
READOUT_KIND: residual activity (%)
All answers are understood in %, so give the number only.

# count of solved cases: 2
{"columns": ["MOLECULAR_STRING", "residual activity / %"],
 "data": [
  ["COc1cc2ncnc(N3CCN(C(=O)Nc4ccc(Oc5ccccc5)cc4)CC3)c2cc1OC", 103],
  ["O=C1NC(=O)C(c2c[nH]c3ccccc23)=C1c1c[nH]c2ccccc12", 95.7]
]}

Now for another entry.
[Q] For `CC(C)[C@H](CO)Nc1nc(Nc2cc(N)cc(Cl)c2)c2ncn(C(C)C)c2n1` , what is its reported residual activity?
[A] 65.7

// provenance: the kinase profiling compilation of Christmann-Franck et al. (2016)
